Where do the numbers come from? From PubChem BioAssay AID330.

Examples of compounds with documented T/C follow.
Test system: P388 leukemia ip, CD2F1 mice, survival T/C
METHOD DESCRIPTION: NCI In Vivo Anticancer Drug Screen. Data for tumor model P388 Leukemia (intraperitoneal) in CD2F1 (CDF1) mice
CONDITION LABEL: endpoint: median survival time; dose: 12.5 mg/kg/injection; schedule: Q01DX009 (ip); vehicle: other; higher = longer survival
Toxic doses and inconclusive results are not listed.
OBSERVATION TYPE: T/C

{"COMPOUND": "CNC1CC(C)(O)Cc2cc3c(c(O)c21)C(=O)c1c(O)cc2c(c1C3=O)OC1OC2(C)C(O)C(N(C)C)C1O (configuration not stated)", "MEAS VALUE": "153 % of control"}
{"COMPOUND": "CC(C)CCCCCCCCCCCCC(=O)NC1C(C)OC(Nc2ncnc3nc[nH]c23)C(O)C1O (configuration not stated)", "MEAS VALUE": "91 % of control"}
{"COMPOUND": "NNS(=O)(=O)CCC(NC(=O)OCc1ccccc1)C(=O)OCc1ccccc1 (configuration not stated)", "MEAS VALUE": "98 % of control"}
{"COMPOUND": "COc1c(O)ccc([N+](=O)[O-])c1OC", "MEAS VALUE": "96 % of control"}
{"COMPOUND": "O=C(NC(CCS(=O)(=O)NCc1ccc(S(=O)(=O)F)cc1)C(=O)OCc1ccccc1)OCc1ccccc1 (configuration not stated)", "MEAS VALUE": "90 % of control"}
{"COMPOUND": "COc1ccc(C2=NCC2(Cl)Cl)cc1", "MEAS VALUE": "97 % of control"}
{"COMPOUND": "CCOC(=O)/C=C/C(=O)NNC(=O)OC(C)(C)C", "MEAS VALUE": "99 % of control"}

* * *

System: P388 leukemia ip, CD2F1 mice, survival T/C
METHOD DESCRIPTION: NCI In Vivo Anticancer Drug Screen. Data for tumor model P388 Leukemia (intraperitoneal) in CD2F1 (CDF1) mice
CONDITION LABEL: endpoint: median survival time; dose: 240.0 mg/kg/injection; schedule: Q01DX005 (ip); vehicle: saline with Tween-80; higher = longer survival
Inconclusive results and toxic doses are left out.
Entries and their T/C

{"ENTRY SMILES": "CN(C)c1c2c(oc(=O)c1Cl)-c1ccccc1SCC2", "T/C": "91 % of control"}
{"ENTRY SMILES": "O=C(CCN1C(=O)c2ccccc2C1=O)Nc1c(I)cc(I)c(C(=O)O)c1I", "T/C": "101 % of control"}
{"ENTRY SMILES": "COc1ccc(NC(=O)CCC(=O)CC(=O)c2ccc(C)cc2)cc1", "T/C": "101 % of control"}
{"ENTRY SMILES": "CSC(SC)(C(=O)O)c1cc(C)no1", "T/C": "102 % of control"}
{"ENTRY SMILES": "CCOc1ccc(NC(=O)c2c(C)nc(-c3ccccc3)nc2Nc2ccc(Cl)cc2)cc1", "T/C": "94 % of control"}
{"ENTRY SMILES": "Cc1cc(=O)oc2cc3occc(=O)c3cc12", "T/C": "92 % of control"}
{"ENTRY SMILES": "N#CC1=CCc2ccccc2N1C(=O)Oc1ccccc1", "T/C": "88 % of control"}
{"ENTRY SMILES": "COC(=O)N(c1ccccc1)c1ccccn1", "T/C": "100 % of control"}
{"ENTRY SMILES": "CC(=O)Nc1cnc2c(nc3cc(C)ccn32)c1C", "T/C": "97 % of control"}
{"ENTRY SMILES": "N#Cc1nc(CC(=O)c2ccc(Cl)c(Cl)c2)c(CC(=O)c2ccc(Cl)c(Cl)c2)nc1C#N", "T/C": "86 % of control"}
{"ENTRY SMILES": "Nc1ncnc(N)c1NC(=O)c1ccc(OCc2ccccc2)cc1", "T/C": "95 % of control"}
